SYSTEM_UNDER_TEST: Human vitronectin receptor (αv β3) (Homo sapiens, UniProt P05106+P06756)
Construct: Human vitronectin receptor (αv β3) was purified from human placenta; from tissue; host or cells: human placenta
Sequence (P06756 31-889 limits assumed): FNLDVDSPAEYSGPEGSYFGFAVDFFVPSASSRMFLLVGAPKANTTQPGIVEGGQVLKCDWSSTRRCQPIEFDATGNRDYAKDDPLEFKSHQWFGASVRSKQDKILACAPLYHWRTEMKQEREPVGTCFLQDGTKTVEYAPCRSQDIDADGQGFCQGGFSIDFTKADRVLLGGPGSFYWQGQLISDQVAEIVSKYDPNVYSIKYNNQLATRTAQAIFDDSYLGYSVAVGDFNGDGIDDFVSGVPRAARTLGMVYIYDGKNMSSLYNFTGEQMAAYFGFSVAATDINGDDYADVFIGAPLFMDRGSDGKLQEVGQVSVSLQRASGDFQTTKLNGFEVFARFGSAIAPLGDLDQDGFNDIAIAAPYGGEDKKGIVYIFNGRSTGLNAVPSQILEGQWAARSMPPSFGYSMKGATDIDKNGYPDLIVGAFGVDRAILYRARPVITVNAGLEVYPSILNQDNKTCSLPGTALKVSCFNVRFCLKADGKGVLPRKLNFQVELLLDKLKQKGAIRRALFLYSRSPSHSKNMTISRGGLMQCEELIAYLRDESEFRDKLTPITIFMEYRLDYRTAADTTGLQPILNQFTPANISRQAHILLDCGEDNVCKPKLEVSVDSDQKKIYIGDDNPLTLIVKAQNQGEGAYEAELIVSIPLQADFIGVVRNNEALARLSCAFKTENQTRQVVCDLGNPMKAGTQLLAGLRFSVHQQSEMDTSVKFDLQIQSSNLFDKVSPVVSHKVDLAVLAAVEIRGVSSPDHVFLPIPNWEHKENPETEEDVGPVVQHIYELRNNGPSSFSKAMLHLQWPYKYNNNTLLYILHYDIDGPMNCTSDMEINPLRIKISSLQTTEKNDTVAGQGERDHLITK
Sequence (P06756 891-1048 limits assumed): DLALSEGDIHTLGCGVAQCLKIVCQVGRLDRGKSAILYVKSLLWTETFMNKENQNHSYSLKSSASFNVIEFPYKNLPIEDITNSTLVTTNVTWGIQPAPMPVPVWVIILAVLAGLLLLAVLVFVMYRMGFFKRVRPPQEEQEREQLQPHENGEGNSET
Sequence (P05106 27-788): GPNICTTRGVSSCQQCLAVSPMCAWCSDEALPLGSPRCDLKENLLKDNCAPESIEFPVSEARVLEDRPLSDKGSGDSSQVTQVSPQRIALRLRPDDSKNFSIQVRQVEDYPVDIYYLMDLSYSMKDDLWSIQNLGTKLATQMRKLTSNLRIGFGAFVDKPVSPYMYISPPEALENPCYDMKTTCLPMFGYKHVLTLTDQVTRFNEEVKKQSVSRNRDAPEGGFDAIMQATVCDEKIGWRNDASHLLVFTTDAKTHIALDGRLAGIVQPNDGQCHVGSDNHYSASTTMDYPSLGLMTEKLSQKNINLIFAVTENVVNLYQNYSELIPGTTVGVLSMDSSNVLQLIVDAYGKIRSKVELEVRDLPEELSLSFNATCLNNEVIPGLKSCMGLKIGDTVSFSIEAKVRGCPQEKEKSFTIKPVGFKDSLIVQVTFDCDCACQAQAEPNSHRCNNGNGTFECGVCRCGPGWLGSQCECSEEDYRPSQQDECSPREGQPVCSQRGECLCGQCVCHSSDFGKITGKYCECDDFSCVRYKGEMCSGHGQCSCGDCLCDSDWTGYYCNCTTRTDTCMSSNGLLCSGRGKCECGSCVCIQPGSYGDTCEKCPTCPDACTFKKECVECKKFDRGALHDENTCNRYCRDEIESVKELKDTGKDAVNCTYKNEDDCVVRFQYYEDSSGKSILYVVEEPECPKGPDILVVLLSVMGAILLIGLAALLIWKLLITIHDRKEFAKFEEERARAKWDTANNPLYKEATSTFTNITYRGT
ASSAY_EXPLANATION: Vitronectin adhesion assay (solid phase receptor assay, αvβ3)
Assay type: binding
CONDITION_SET: inhibition of binding of biotinylated human vitronectin (1 nM) to purified receptor; Table I; read-out: AvB3 IC50
pIC50: −log10 of the molar value. Where a name gives a salt, the structure may show the parent alone.
Each entry belongs to exactly one class, chosen by where its pIC50 falls: bin 0 = under 7, bin 1 = from 7 up to 8, bin 2 = 8 and over

Q: Into which category would you place O=C(O)/C=C/c1ccc(OCc2cccc(NC3=NCCCN3)c2)cc1 [Example 101, trifluoroacetate salt] ?
A: bin 1

Q: Class label required: N=C(N)Nc1cccc(C(=O)NCc2cccc(C(=CC(=O)O)c3cc(Cl)cc(Cl)c3)c2)c1 [Example 75, trifluoroacetate salt]
A: bin 0

Q: Where would N=C(N)Nc1cccc(-c2coc(-c3ccc(C=CC(=O)O)cc3)n2)c1 [Example 103] land among the classes by reported pIC50?
A: bin 0

Q: GET /class?item= N=C(N)Nc1cccc(-c2nc(-c3cccc(/C=C/C(=O)O)c3)co2)c1 [Example 102, trifluoroacetate salt]
A: bin 0

Q: The entry to classify is O=C(O)/C=C/c1cccc(CNC(=O)c2cccc(NC3=NCCCN3)c2)c1 [Example 62, monohydrochloride] ; which class holds it?
A: bin 2

Q: Class (by measured pIC50) for C/C(=C\C(=O)O)c1ccc(NC(=O)c2cccc(NC(=N)N)c2)cc1 [Example 59, trifluoroacetate salt]
A: bin 0

Q: Sort into band: O=C(O)/C=C/c1ccc(NC(=O)c2cccc(NC3=NCCCN3)c2)cc1 [Example 49, trifluoroacetate salt]
A: bin 2

Q: Category lookup for the compound N=C(N)Nc1cccc(C(O)CCc2cccc(/C=C/C(=O)O)c2)c1 (racemic) [Example 96, trifluoroacetate salt]
A: bin 0

Q: Category lookup for the compound Cc1cc(/C=C/C(=O)O)cc(C)c1NC(=O)c1cccc(NC(=N)N)c1 [Example 13, trifluoroacetate salt]
A: bin 1

Q: Which class does O=C(O)/C=C/c1cccc(CNC(=O)c2cccc(Nc3ncccn3)c2)c1 [Example 73, trifluoroacetate salt] fall in?
A: bin 0

Q: # classify by pIC50 band: COc1cc(NC(=O)c2cc(NC(=N)N)cc(C(F)(F)F)c2)ccc1/C=C/C(=O)O [Example 55, trifluoroacetate salt]
A: bin 2

Q: Which bin, given its pIC50, does Cc1cc(/C=C/C(=O)O)cc(C)c1NC(=O)c1cccc(NC2=NCCN2)c1 [Example 25, trifluoroacetate salt] occupy?
A: bin 2

Q: Category lookup for the compound N=C(N)Nc1cccc(C(O)CNc2cccc(/C=C/C(=O)O)c2)c1 (stereo not shown) [Example 81, hydrate]
A: bin 1

Q: Note: place this compound into its band. Item: COc1ccc(/C=C/C(=O)O)cc1C(=O)/C=C/c1cccc(NC(=N)N)c1 [Example 86, trifluoroacetate salt]
A: bin 0

Q: Kindly state the category for this compound: COC(=O)/C=C/c1cccc(CNC(=O)c2cccc(NC(=N)N)c2)c1 [Example 1, trifluoroacetate salt]
A: bin 0

Q: Input N=C(N)Nc1cccc(C(=O)Nc2ccc(/C=C/C(=O)O)c(C(=O)O)c2)c1 [Example 36, trifluoroacetate salt] ; output its category
A: bin 2

Q: Would you mind sorting Cc1cc(/C=C/C(=O)O)ccc1NC(=O)c1cccc(NC2=NCCCN2)c1 [Example 18, trifluoroacetate salt] into the appropriate category?
A: bin 2

Q: Into which category would you place Cc1cc(/C=C/C(=O)O)cc(C)c1NC(=O)c1cccc(NC(N)=O)c1 [Example 27, trifluoroacetate salt] ?
A: bin 0

Q: Into which bin does this compound go? CCOC(=O)/C=C/c1ccc(NC(=O)c2cccc(NC(=N)N)c2)cc1 [Example 3, monohydrate trifluoroacetate salt]
A: bin 0

Q: Assign a bin to Cc1cc(/C=C/C(=O)O)ccc1NC(=O)c1cccc(NC(=N)N)c1 [Example 5, trifluoroacetate salt]
A: bin 2

Q: Category of COC(=O)c1cc(NC(=O)c2cccc(NC(=N)N)c2)ccc1/C=C/C(=O)O [Example 37, trifluoroacetate salt] :
A: bin 1
